Listed next: entries and their corresponding AC50.
target: 3',5'-cyclic-AMP phosphodiesterase 4D (Homo sapiens, UniProt Q08499); format: functional; also: assay procedure not described here
Sequence (Q08499 whole entry): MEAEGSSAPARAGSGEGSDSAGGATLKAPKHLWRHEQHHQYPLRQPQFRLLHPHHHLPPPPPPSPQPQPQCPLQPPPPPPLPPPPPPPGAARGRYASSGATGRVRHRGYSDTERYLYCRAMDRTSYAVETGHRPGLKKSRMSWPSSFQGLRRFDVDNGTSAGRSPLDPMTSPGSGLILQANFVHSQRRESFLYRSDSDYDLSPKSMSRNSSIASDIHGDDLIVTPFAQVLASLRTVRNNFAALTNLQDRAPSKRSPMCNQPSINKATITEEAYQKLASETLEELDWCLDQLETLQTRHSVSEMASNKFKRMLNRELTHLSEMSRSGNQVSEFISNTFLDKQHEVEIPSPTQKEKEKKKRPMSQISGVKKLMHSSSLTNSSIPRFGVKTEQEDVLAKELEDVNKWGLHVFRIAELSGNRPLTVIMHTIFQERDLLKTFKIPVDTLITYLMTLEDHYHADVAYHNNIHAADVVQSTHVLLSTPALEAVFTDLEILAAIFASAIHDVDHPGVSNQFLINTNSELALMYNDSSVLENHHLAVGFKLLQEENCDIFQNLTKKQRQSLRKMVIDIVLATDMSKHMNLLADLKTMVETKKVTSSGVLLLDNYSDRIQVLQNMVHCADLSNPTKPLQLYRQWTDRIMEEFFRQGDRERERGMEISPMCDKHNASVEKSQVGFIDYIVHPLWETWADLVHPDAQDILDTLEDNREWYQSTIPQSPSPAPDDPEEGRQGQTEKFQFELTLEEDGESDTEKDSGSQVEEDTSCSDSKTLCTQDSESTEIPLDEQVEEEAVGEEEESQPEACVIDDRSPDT
ENDPOINT NAME: AC50

1. CCOC(=O)[N-]c1cn(N2CCOCC2)n[o+]1; > 30 µM
2. Cc1ccc(S(=O)(=O)NC(=O)NN2CC3CCCC3C2)cc1 (stereo not drawn) [GLICLAZIDE]; > 30 µM
3. C=CCC1(CC(C)C)C(=O)NC(=O)NC1=O; > 30 µM
4. CCC(C(=O)O)c1ccc(N2Cc3ccccc3C2=O)cc1 (stereo not drawn); > 30 µM
5. O=C(O[C@H]1C[C@H]2CC[C@@H](C1)[N+]21CCCC1)C(O)(c1ccccc1)c1ccccc1; > 30 µM
6. Nc1nc(NC2CC2)c2ncn([C@H]3C=C[C@@H](CO)C3)c2n1; 10 µM
7. COC(=O)C1=C(C)NC(C)=C(C(=O)OC2CCCN(Cc3ccccc3)C2)C1c1cccc([N+](=O)[O-])c1 (stereo not drawn); 7.1 µM
8. C=CCc1ccccc1OCC(O)CNC(C)C (stereo not drawn); > 30 µM
9. CC=CC(=O)N(CC)c1ccccc1C; > 30 µM
10. CCOC(=O)[C@H](CCc1ccccc1)N[C@@H](C)C(=O)N1C(=O)N(C)C[C@H]1C(=O)O; > 30 µM
11. CN1CCC(=C2c3ccccc3CCc3sccc32)CC1; > 10 µM
12. Cc1cn([C@H]2C=C[C@@H](CO)O2)c(=O)[nH]c1=O; > 30 µM
13. C=CCN1C[C@H](C(=O)N(CCCN(C)C)C(=O)NCC)C[C@@H]2c3cccc4[nH]cc(c34)C[C@H]21; > 30 µM
14. CCCC1O[C@@H]2C[C@H]3[C@@H]4CCC5=CC(=O)C=C[C@]5(C)[C@H]4[C@@H](O)C[C@]3(C)[C@]2(C(=O)CO)O1 (stereo partly drawn) [BUDESONIDE]; > 30 µM
15. CN1C(C(=O)Nc2ccccn2)=C(O)c2sc(Cl)cc2S1(=O)=O; > 30 µM
16. COc1ccccc1N1CCN(CCCNc2cc(=O)n(C)c(=O)n2C)CC1; > 10 µM
17. COc1ccccc1OCCNCC(O)c1ccc(C)c(S(N)(=O)=O)c1 (stereo not drawn); 6.7 µM
18. C[C@]12CCC(=O)C=C1CC[C@@H]1[C@@H]2[C@@H](O)C[C@@]2(C)[C@H]1CC[C@]2(O)C(=O)CO [HYDROCORTISONE]; > 30 µM
